# system under test: the molecule itself
# measurement protocol: SPR; OpenSPR (Nicoya), ligand protein (0.100 mg) amine-coupled to a Carboxy sensor chip; 1 M sodium caprate injected to disrupt preformed interactions and after each analyte; analyte 12.5-100 ug per 200 uL injection, triplicate; global fit, 1:1 Langmuir model, TraceDraw
Please provide measured kon for the entries that follow.

Value lookup for kon; key = MBP-fused extracellular domain of human JAM-B (Gly28-Ser238) (domain or fragment, UniProt P57087 28-238, looked up, JAM-B, human, extracellular domain, Gly28-Ser238 of P57087; No protease site between MBP and the target in the final design; Octamer by size exclusion; also called junctional adhesion molecule B; source: E. coli SHuffle T7 Express, purified (amylose resin, size exclusion chromatography); not shown: MBP, N-terminal, kept) GFSAPKDQQVVTAVEYQEAILACKTPKKTVSSRLEWKKLGRSVSFVYYQQTLQGDFKNRAEMIDFNIRIKNVTRSDAGKYRCEVSAPSEQGQNLEEDTVTLEVLVAPAVPSCEVPSSALSGTVVELRCQDKEGNPAPEYTWFKDGIRLLENPRLGSQSTNSSYTMNTKTGTLQFNTVSKLDTGEYSCEARNSVGYRRCPGKRMQVDDLNIS
4800 M⁻¹ s⁻¹

Value lookup for kon; key = MBP-fused extracellular domain of human JAM-A (Gly27-Arg228) (domain or fragment, UniProt Q9Y624 27-228, looked up, JAM-A, human, extracellular domain, Gly27-Arg228 of Q9Y624; No protease site between MBP and the target in the final design (pET28a-MBP, NdeI/XhoI); also called junctional adhesion molecule A; source: E. coli SHuffle T7 Express, purified (amylose resin, size exclusion chromatography); not shown: MBP, N-terminal, kept) GSVTVHSSEPEVRIPENNPVKLSCAYSGFSSPRVEWKFDQGDTTRLVCYNNKITASYEDRVTFLPTGITFKSVTREDTGTYTCMVSEEGGNSYGEVKVKLIVLVPPSKPTVNIPSSATIGNRAVLTCSEQDGSPPSEYTWFKDGIVMPTNPKSTRAFSNSSYVLNPTTGELVFDPLSASDTGEYSCEARNGYGTPMTSNAVR
13100 M⁻¹ s⁻¹

Value lookup for kon; key = MBP-fused extracellular domain of human JAM4 (Gly34-Arg286) (domain or fragment, UniProt Q9NSI5 34-286, looked up, JAM4, human, extracellular domain, Gly34-Arg286 of Q9NSI5; No protease site between MBP and the target in the final design; Decamer by size exclusion; source: E. coli SHuffle T7 Express, purified (amylose resin, size exclusion chromatography); not shown: MBP, N-terminal, kept) GSGSGNEVIEGPQNARVLKGSQARFNCTVSQGWKLIMWALSDMVVLSVRPMEPIITNDRFTSQRYDQGGNFTSEMIIHNVEPSDSGNIRCSLQNSRLHGSAYLTVQVMGELFIPSVNLVVAENEPCEVTCLPSHWTRLPDISWELGLLVSHSSYYFVPEPSDLQSAVSILALTPQSNGTLTCVATWKSLKARKSATVNLTVIRCPQDTGGGINIPGVLSSLPSLGFSLPTWGKVGLGLAGTMLLTPTCTLTIR
1670 M⁻¹ s⁻¹

Value lookup for kon; key = MBP-fused extracellular domain of human JAM-C (Gly30-Glu236) (domain or fragment, UniProt Q9BX67 30-236, looked up, JAM-C, human, extracellular domain, Gly30-Glu236 of Q9BX67; No protease site between MBP and the target in the final design; Tetramer by size exclusion; also called junctional adhesion molecule C; source: E. coli SHuffle T7 Express, purified (amylose resin, size exclusion chromatography); not shown: MBP, N-terminal, kept) GAVNLKSSNRTPVVQEFESVELSCIITDSQTSDPRIEWKKIQDEQTTYVFFDNKIQGDLAGRAEILGKTSLKIWNVTRRDSALYRCEVVARNDRKEIDEIVIELTVQVKPVTPVCRVPKAVPVGKMATLHCQESEGHPRPHYSWYRNDVPLPTDSRANPRFRNSSFHLNSETGTLVFTAVHKDDSGQYYCIASNDAGSARCEEQEME
782 M⁻¹ s⁻¹
